Assay: Water retention property test 2 (hydrates)
Assay type: physicochemical
Details: hydrate (anhydrides: aqueous solution at mono- to trihydrate concentration); before the test
Procedure: (2) Water retention property test 2 The water retention property of the hydrate of each compound was evaluated. […] A moisture rate after 24 hours was again measured (post-test moisture rate: B), followed by calculating a rate of reduction in moisture in a similar manner as above so as to evaluate the water retention property. […]
reported metric: Pre-test moisture rate (%)
Express it in %; write the number only.

> print(dat)
                                   compound  display.unit  observed
1  CC(C)(N)CO.O=C1OC(C(O)CO)C(O)=C1O (centres unmarked) [Working example C115]             %      12.0

Give recorded Pre-test moisture rate. NC(CO)CO.O=C(O)CCC(=O)O [Working example C70]
14.7

Give recorded Pre-test moisture rate. C[N+](C)(C)CCO.O=C([O-])CCC(=O)O [Working example C92]
7.5

Give recorded Pre-test moisture rate. CS(=O)(=O)O.NC(CO)CO [Working example C72]
16.1

Give recorded Pre-test moisture rate. O=C1O[C@H]([C@@H](O)CO)C(O)=C1O.OCCNCCO [Comparative example C104]
11.4

====

Experiment: Water retention property test 1
Type: physicochemical
Conditions: 80 wt % aqueous solution
Method: A moisture rate after 24 hours was again measured (post-test moisture rate: B), followed by using the formula below to calculate a rate of reduction in moisture so as to evaluate the water retention property. • Pre-test moisture rate: A (%) • Post-test moisture rate: B (%)
reported metric: Water retention property test 1 Pre-test moisture rate (%)
Express it in %; write the number only.

> print(dat)
                                   compound  display.unit  observed
1                 CC(C)(C)CO [Compound C44]             %      20.0
2  CC(=O)[O-].C[N+](C)(C)CCO [Compound C27]             %      20.0

Give recorded Water retention property test 1 Pre-test moisture rate. CC(CO)CO [Compound C45]
20.0

====

Experiment: Water retention property test 1
Format: physicochemical
Conditions: 80 wt % aqueous solution; 24 hours at 40° C. and 25% RH
reported metric: Water retention property test 1 Post-test moisture rate (%)
Express it in %; write the number only.

Past entries and their recorded results:
> print(dat)
                                    compound  observed
 1                CC(C)(CO)CO [Compound C47]      19.2
 2  C[N+](C)(C)CCO.O=C([O-])CCC(=O)O [Compound C31]      19.0
 3  NCCO.O=C1OC(C(O)CO)C(O)=C1O (centres unmarked) [Compound C40]      19.5
 4  CC(=O)[O-].C[N+](C)(C)CCO [Compound C27]      19.0
 5  C[N+](C)(C)CCO.O=P([O-])(O)O [Compound C33]      19.4
 6                   CC(CO)CO [Compound C45]      19.5
 7  C[N+](C)(C)CCO.O=C([O-])CO [Compound C28]      19.4
 8  CC(O)C(=O)[O-].OCC[N+](CCO)(CCO)CCO [Compound C26]      19.0
 9  CC(O)C(=O)O.NCCO (centres unmarked) [Compound C1]      19.3
10  C[N+](C)(C)CCO.O=C([O-])C=CC(=O)O [Compound C30]      19.0

Give recorded Water retention property test 1 Post-test moisture rate. C[N+](C)(C)CCO.O=[PH2][O-] [Compound C34]
19.4

Give recorded Water retention property test 1 Post-test moisture rate. CC(O)C(=O)O.N (centres unmarked) [Compound C24]
19.0

Give recorded Water retention property test 1 Post-test moisture rate. CC(O)C(=O)O.OCCNCCO [Compound C2]
19.0

Give recorded Water retention property test 1 Post-test moisture rate. NC(CO)(CO)CO.O=C(O)CC(O)(CC(=O)O)C(=O)O [Compound C21]
19.0

Give recorded Water retention property test 1 Post-test moisture rate. C[N+](C)(CCO)CC(O)C[N+](C)(C)CCO.[Cl-].[Cl-] [Compound C38]
18.1

Give recorded Water retention property test 1 Post-test moisture rate. CC(C)(C)CO [Compound C44]
19.2
